Data provenance is the supplement of paper PMC11451515.

# Test system: SEM cells
# ASSAY METHOD TEXT: AUC of viability dose-response curve (% viability x log10 dose units); higher = less sensitive
# CONDITION DESCRIPTION: RPMI 5 mM glucose + 10% FBS; 48 h
Task for the reader: assign each of the following molecules its reported AUC of viability dose-response curve.
Numbers only.

Sample answers from the record:
| MOLECULE | PARAMETER | OBSERVED RESULT |
| --- | --- | --- |
| O=C1CCC[C@@H]2[C@H]3CCCN4CCC[C@@H](CN12)[C@@H]34 | AUC of viability dose-response curve | 390 |
| Clc1cccc(-n2nnnc2NCc2ccccc2Oc2ccccn2)c1Cl | AUC of viability dose-response curve | 470 |
| CC(C)(C)c1nc(-c2cccc(N[S+](=O)([O-])c3c(F)cccc3F)c2F)c(-c2ccnc(N)n2)s1 | AUC of viability dose-response curve | 430 |
| CCCC(C)(COC(N)=O)COC(=O)NC(C)C (stereo not given) | AUC of viability dose-response curve | 443 |

Here's the next entry for you.
Look up AUC of viability dose-response curve for this molecule: "COc1ccc(C(=O)N2CCCC2=O)cc1"
422
